- measurement.notes: Solubility of ruxolitinib free base or 1:1 phosphate salt in potential solvents (HPLC)
- Assay type: physicochemical
- condition.description: 0.1 M citric buffer, pH 4, aqueous buffer, thermodynamic from solid, pH 4, citric buffer, 0.1M
measured.property: solubility at 24 h (µg/mL)

INSERT INTO results (structure, measured_property, numeric_result) VALUES
  ('N#CC[C@H](C1CCCC1)n1cc(-c2ncnc3[nH]ccc23)cn1', 'solubility at 24 h', 1100);

----------
- measurement.notes: Solubility of ruxolitinib free base or 1:1 phosphate salt in potential solvents (HPLC)
- Assay type: physicochemical
- condition.description: isosorbide dimethyl ether, organic solvent or mixture, thermodynamic from solid
measured.property: solubility at 24 h (mg/mL)

INSERT INTO assay_data (structure, measured_property, numeric_result) VALUES
  ('N#CC[C@H](C1CCCC1)n1cc(-c2ncnc3[nH]ccc23)cn1', 'solubility at 24 h', 0.3);

----------
- measurement.notes: Solubility of ruxolitinib free base or 1:1 phosphate salt in potential solvents (HPLC)
- Assay type: physicochemical
- condition.description: PEG 200, organic solvent or mixture, thermodynamic from solid, PEG 200
measured.property: solubility at 24 h

INSERT INTO assay_data (molecule, result) VALUES
  ('N#CC[C@H](C1CCCC1)n1cc(-c2ncnc3[nH]ccc23)cn1 [ruxolitinib]', '17.4 mg/mL');

----------
- measurement.notes: Solubility of ruxolitinib free base or 1:1 phosphate salt in potential solvents (HPLC)
- Format: physicochemical
- condition.description: dimethicone, oil or lipid, thermodynamic from solid
measured.property: solubility at 24 h

INSERT INTO measurements (compound, measured_property, result) VALUES
  ('N#CC[C@H](C1CCCC1)n1cc(-c2ncnc3[nH]ccc23)cn1 [ruxolitinib phosphate]', 'solubility at 24 h', '< 200 µg/mL');

----------
- measurement.notes: Solubility of ruxolitinib free base or 1:1 phosphate salt in potential solvents (HPLC)
- Format: physicochemical
- condition.description: water, thermodynamic from solid; room temperature
measured.property: solubility at 24 h (µg/mL)

INSERT INTO assay_data (structure, numeric_result) VALUES
  ('N#CC[C@H](C1CCCC1)n1cc(-c2ncnc3[nH]ccc23)cn1', 2000);

----------
- measurement.notes: Solubility of ruxolitinib free base or 1:1 phosphate salt in potential solvents (HPLC)
- Type: physicochemical
- condition.description: water/glycerin (50/50), aqueous with cosolvent or surfactant or cyclodextrin, thermodynamic from solid, Water/glyercin (50/50)
- Description: First, in order to determine the solubility of ruxolitinib (free base) or its 1:1 phosphate salt, approximately 5 mL of a potential solvent was added to approximately 50 mg of the API or its salt at room temperature. The mixtures were suspended and rotated on a wheel. If the mixtures became clear solutions, more solid material was added. The suspensions were then suspended over 24 hours. […] The concentrations of the diluted samples were analyzed by HPLC. […]
measured.property: solubility at 24 h (mg/mL)

INSERT INTO results (structure, measured_property, numeric_result) VALUES
  ('N#CC[C@H](C1CCCC1)n1cc(-c2ncnc3[nH]ccc23)cn1', 'solubility at 24 h', 15.9);

----------
- measurement.notes: Solubility of ruxolitinib free base or 1:1 phosphate salt in potential solvents (HPLC)
- Assay type: physicochemical
- condition.description: ethanol, organic solvent or mixture, thermodynamic from solid
measured.property: solubility at 24 h

INSERT INTO assay_data (structure, result) VALUES
  ('N#CC[C@H](C1CCCC1)n1cc(-c2ncnc3[nH]ccc23)cn1', '5500 µg/mL');

----------
- measurement.notes: Solubility of ruxolitinib free base or 1:1 phosphate salt in potential solvents (HPLC)
- Type: physicochemical
- condition.description: PEG 300, organic solvent or mixture, thermodynamic from solid, PEG 300
- Method: First, in order to determine the solubility of ruxolitinib (free base) or its 1:1 phosphate salt, approximately 5 mL of a potential solvent was added to approximately 50 mg of the API or its salt at room temperature. The mixtures were suspended and rotated on a wheel. If the mixtures became clear solutions, more solid material was added. The suspensions were then suspended over 24 hours. […] The concentrations of the diluted samples were analyzed by HPLC. […]
measured.property: solubility at 24 h (mg/mL)

INSERT INTO assay_data (compound, measured_property, numeric_result) VALUES
  ('N#CC[C@H](C1CCCC1)n1cc(-c2ncnc3[nH]ccc23)cn1 [ruxolitinib]', 'solubility at 24 h', 10.6);

----------
- measurement.notes: Solubility of ruxolitinib free base or 1:1 phosphate salt in potential solvents (HPLC)
- Assay type: physicochemical
- condition.description: C12-15 alcohol benzoate, oil or lipid, thermodynamic from solid
measured.property: solubility at 24 h

INSERT INTO measurements (compound, measured_property, result) VALUES
  ('N#CC[C@H](C1CCCC1)n1cc(-c2ncnc3[nH]ccc23)cn1 [ruxolitinib phosphate]', 'solubility at 24 h', '< 200 µg/mL');
